B1: Osa-1-4 twister ribozyme (parent)
chain: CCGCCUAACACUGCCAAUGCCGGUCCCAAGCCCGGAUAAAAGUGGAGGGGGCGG

- Variants of: B1
- measurement_protocol: self-cleavage, relative activity (ratio to wild type); higher = more cleavage; co-transcriptional
property: self-cleavage

[[record]]
variant_identifier = "C9A G13C"
property = "self-cleavage"
assay_result = 0.03

[[record]]
variant_identifier = "C26G"
property = "self-cleavage"
assay_result = 0.09

[[record]]
variant_identifier = "A46U G19A"
property = "self-cleavage"
assay_result = 0.06

[[record]]
variant_identifier = "A38U G34A"
property = "self-cleavage"
assay_result = 0.78

[[record]]
variant_identifier = "A29U C52U"
property = "self-cleavage"
assay_result = 0.19

[[record]]
variant_identifier = "A16U A46G"
property = "self-cleavage"
assay_result = 0.05

[[record]]
variant_identifier = "A38C G51A"
property = "self-cleavage"
assay_result = 0.69

[[record]]
variant_identifier = "C15U G49A"
property = "self-cleavage"
assay_result = 0.05

[[record]]
variant_identifier = "C27G G54A"
property = "self-cleavage"
assay_result = 0.06

[[record]]
variant_identifier = "C14A G22C"
property = "self-cleavage"
assay_result = 0.02

[[record]]
variant_identifier = "A36G U43A"
property = "self-cleavage"
assay_result = 0.92

[[record]]
variant_identifier = "A7U G30A"
property = "self-cleavage"
assay_result = 0.06

[[record]]
variant_identifier = "G42U G49A"
property = "self-cleavage"
assay_result = 0.04

[[record]]
variant_identifier = "A29G G45C"
property = "self-cleavage"
assay_result = 0.03

[[record]]
variant_identifier = "G23A G50U"
property = "self-cleavage"
assay_result = 0.3

[[record]]
variant_identifier = "C32G G54U"
property = "self-cleavage"
assay_result = 0.25

[[record]]
variant_identifier = "A36C A41C"
property = "self-cleavage"
assay_result = 0.6

[[record]]
variant_identifier = "G23A U24C"
property = "self-cleavage"
assay_result = 0.05

[[record]]
variant_identifier = "A39C G30C"
property = "self-cleavage"
assay_result = 0.04

[[record]]
variant_identifier = "C25U C9A"
property = "self-cleavage"
assay_result = 0.23

[[record]]
variant_identifier = "C27G G49A"
property = "self-cleavage"
assay_result = 0.04

[[record]]
variant_identifier = "G30A U24G"
property = "self-cleavage"
assay_result = 0.01

